Biological target: Steroid 17-alpha-hydroxylase/17,20 lyase (Homo sapiens, UniProt P05093)
Sequence (P05093 whole entry): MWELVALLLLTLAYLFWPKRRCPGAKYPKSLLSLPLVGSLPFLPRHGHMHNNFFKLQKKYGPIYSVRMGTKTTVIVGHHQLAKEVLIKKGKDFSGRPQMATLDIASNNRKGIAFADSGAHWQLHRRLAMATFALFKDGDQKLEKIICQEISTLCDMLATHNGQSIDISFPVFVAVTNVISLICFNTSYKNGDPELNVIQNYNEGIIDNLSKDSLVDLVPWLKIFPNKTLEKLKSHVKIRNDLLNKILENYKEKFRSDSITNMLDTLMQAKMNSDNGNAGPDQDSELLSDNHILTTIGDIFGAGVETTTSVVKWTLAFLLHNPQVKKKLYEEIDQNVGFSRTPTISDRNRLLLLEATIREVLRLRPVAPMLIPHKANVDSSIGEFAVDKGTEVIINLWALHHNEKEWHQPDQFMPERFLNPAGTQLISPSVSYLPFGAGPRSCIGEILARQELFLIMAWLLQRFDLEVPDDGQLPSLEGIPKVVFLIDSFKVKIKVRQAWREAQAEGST
pIC50: −log10 of the molar value.
Study the reported pIC50 values for Steroid 17-alpha-hydroxylase/17,20 lyase (Homo sapiens, UniProt P05093) given below; they originate from different publications.
quantityName: pIC50

1) N#Cc1ccc(Cn2ccnc2)c2c(=O)c3ccccc3oc12: 6.66

a: CC(C)=C(c1ccncc1)c1ccc(-c2ccc(O)c(F)c2)cc1
b: CCC(c1ccc(-c2ccsc2Cl)cc1)n1ccnc1 (stereo unspecified)
c: Fc1ccc(-c2ccc(Cc3ccncc3)cc2)cc1F
d: CC(C)C(O)(c1ccc2cc3c(cc2c1)CNC3=O)c1c[nH]cn1 (racemic)
Q. I would appreciate it if you could sort these 4 compounds by pIC50, starting from the smallest number. Return value: ordered labels per request.
A. c, b, a, d

###

Target: Steroid 17-alpha-hydroxylase/17,20 lyase (Homo sapiens, UniProt P05093)
Sequence (P05093 whole entry): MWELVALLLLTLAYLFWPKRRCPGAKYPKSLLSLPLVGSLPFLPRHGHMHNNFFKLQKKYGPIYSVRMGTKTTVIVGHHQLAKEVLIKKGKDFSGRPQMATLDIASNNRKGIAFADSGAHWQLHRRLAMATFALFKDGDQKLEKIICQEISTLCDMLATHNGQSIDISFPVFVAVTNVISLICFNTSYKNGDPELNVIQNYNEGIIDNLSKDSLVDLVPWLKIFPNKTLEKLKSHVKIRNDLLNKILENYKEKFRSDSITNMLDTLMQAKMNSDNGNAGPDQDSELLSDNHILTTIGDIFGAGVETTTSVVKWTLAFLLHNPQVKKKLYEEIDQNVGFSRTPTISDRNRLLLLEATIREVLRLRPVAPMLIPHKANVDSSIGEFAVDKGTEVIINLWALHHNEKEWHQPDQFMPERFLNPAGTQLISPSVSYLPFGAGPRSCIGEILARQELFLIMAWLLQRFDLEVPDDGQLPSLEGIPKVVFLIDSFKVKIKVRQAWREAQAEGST
pIC50: −log10 of the molar value.
The entries below pair compounds with pIC50 values for Steroid 17-alpha-hydroxylase/17,20 lyase (Homo sapiens, UniProt P05093), as found in several publications.
quantityName: pIC50

Example results:
1. CC(C)[C@](O)(c1ccc2c3c(ccc2c1)C(=O)N(C)C3)c1cnc[nH]1: 7.72
2. NC(=O)c1ccc(-c2ccc(Cc3ccncc3)cc2)cc1: 5.75
3. Nc1ccc(-c2ccc(Cc3ccncc3)cc2)cc1: 6.39

a: COc1ccc2cc([C@](O)(c3c[nH]cn3)C(C)C)ccc2c1
b: CC(C)=C(c1ccncc1)c1ccc(-c2cccc(NC(=O)OC(C)(C)C)c2)cc1
Q. Lower pIC50: a or b ? Please reply using the label of the selected record.
A. b

P: CN1C(=O)CCc2cc(-c3cccnc3)ccc21
Q: C[C@]12CC[C@H](O)CC1=CC[C@@H]1[C@@H]2CC[C@]2(C)C(c3ccno3)=CC[C@@H]12
R: Oc1ccc(-c2ccc(Cc3ccncc3)cc2)cc1O
S: COc1ccc2cc(-c3ccc(Cc4ccncc4)cc3)ccc2c1
Q. Order the records by pIC50, with each subsequent value no larger than the one before. Would you mind listing the labels in the order asked for?
A. R, Q, P, S
(R: 7.28, Q: 6.97, P: 6.50, S: 5.70)

A: CCC(c1ccc(-c2ccc(O)c(O)c2)cc1F)n1ccnc1 (racemic)
B: CC(C)(C)OC(=O)Nc1ccc(-c2ccc(Cc3ccncc3)cc2)cc1
C: Oc1ccc2cc(-c3ccc(Cc4ccncc4)cc3)ccc2c1
Q. List by increasing pIC50. Show the ranking through the labels, in the order asked for.
A. B, C, A

A: CC(C)C(c1cc2c3c(c1)CCN3C(=O)CC2)n1ccnc1 (configuration not stated)
B: CC(=O)O[C@H]1CC[C@@]2(C)C(=CC[C@H]3[C@@H]4CC[C@H](C5=CNC(C(C)=O)N5)[C@@]4(C)CC[C@@H]32)C1 (some centres not stated)
Q. Min pIC50? A | B State your choice using its label.
A. A

A: CNC(=O)Nc1ccc2cc(C(O)(c3c[nH]cn3)C(C)C)ccc2c1 (racemic)
B: Oc1ccc(-c2ccc(Cc3cccnc3)cc2)cc1
Q. Lab note: check whether A or B shows the higher recorded pIC50. Write down the label attached to your selection.
A. A
(A: 7.44, B: 5.39)

P: CCC(c1ccc(-c2cscc2C)cc1)n1ccnc1 (configuration not stated)
Q: O=c1c(Cc2ccncc2)coc2ccccc12
Q. Thinking about recorded pIC50 values, which is higher, P or Q ? Please respond with the label that marks your chosen entry.
A. P
